This collection of values is drawn from patent US6512097.

Let's look at some binders and their measured Kd.
Experimental System: T1, c-erbB-2 ECD with a Ser-Gly-His6 C-terminal fusion (UniProt P04626 23-652)
T1 construct: extracellular domain; Expressed from CHO cells, IMAC purified; coupled to a CM5 chip, coated on plates, or biotinylated with NHS-LC-biotin; also called c-erbB-2 extracellular domain; biotinylated c-erbB-2 ECD
Experiment Notes: SPR BIAcore
Respond with the bare value in nM.

Example results:
Binder: C6.5S100aA (scFv, C6.5 VH CDR3 scan mutant; Kabat numbering) scFv: QVQLLQSGAELKKPGESLKISCKGSGYSFTSYWIAWVRQMPGKGLEYMGLIYPGDSDTKYSPSFQGQVTISVDKSVSTAYLQWSSLKPSDSAVYFCARHDVGYCASSNCAKWPEYFQHWGQGTLVTVSSGGGGSGGGGSGGGGSQSVLTQPPSVSAAPGQKVTISCSGSSSNIGNNYVSWYQQLPGTAPKLLIYGHTNRPAGVPDRFSGSKSGTSASLAISGFRSEDEADYYCAAWDDSLSGWVFGGGTKLTVLG
Kd (nM): 28

Binder: C6.5F100lA (scFv, C6.5 VH CDR3 scan mutant; Kabat numbering; also called F1001A) scFv: QVQLLQSGAELKKPGESLKISCKGSGYSFTSYWIAWVRQMPGKGLEYMGLIYPGDSDTKYSPSFQGQVTISVDKSVSTAYLQWSSLKPSDSAVYFCARHDVGYCSSSNCAKWPEYAQHWGQGTLVTVSSGGGGSGGGGSGGGGSQSVLTQPPSVSAAPGQKVTISCSGSSSNIGNNYVSWYQQLPGTAPKLLIYGHTNRPAGVPDRFSGSKSGTSASLAISGFRSEDEADYYCAAWDDSLSGWVFGGGTKLTVLG
Kd (nM): 454

Turning now to a further record.
Prompt line: State its Kd: C6.5S100cA (scFv, C6.5 VH CDR3 scan mutant; Kabat numbering) scFv: QVQLLQSGAELKKPGESLKISCKGSGYSFTSYWIAWVRQMPGKGLEYMGLIYPGDSDTKYSPSFQGQVTISVDKSVSTAYLQWSSLKPSDSAVYFCARHDVGYCSSANCAKWPEYFQHWGQGTLVTVSSGGGGSGGGGSGGGGSQSVLTQPPSVSAAPGQKVTISCSGSSSNIGNNYVSWYQQLPGTAPKLLIYGHTNRPAGVPDRFSGSKSGTSASLAISGFRSEDEADYYCAAWDDSLSGWVFGGGTKLTVLG
Response line: 24
